// provenance: PubChem BioAssay AID1963862

# Test system: KRAS patient-derived spheroids with HUVEC/MSC, viability;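 also: spheroids exposed to agents for seven days before readout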
# Protocol details: Anticancer human tumor 941728-121-R-J1-PDC patient-derived lung adenocarcinoma cell line growth inhibition [KRAS2]
# Assay conditions: second compound 3.16 µM; first compound 0.0316 µM; hits give low values
For each record, check the reported viability, T/C: if it is below 20% write class 1, else write class 0.

Examples from the recorded data:
1. COC(=O)c1ccc2c(C(=Nc3ccc(N(C)C(=O)CN4CCN(C)CC4)cc3)c3ccccc3)c(O)[nH]c2c1 + C=CC(=O)N1CCN(c2nc(=O)n(-c3c(C)ccnc3C(C)C)c3nc(-c4c(O)cccc4F)c(F)cc23)C(C)C1; class 0
2. CCNC(=O)CC1N=C(c2ccc(Cl)cc2)c2cc(OC)ccc2-n2c(C)nnc21 (stereo not given) + C=CC(=O)N1CCN(c2nc(OCC3CCCN3C)nc3c2CCN(c2cccc4cccc(C)c24)C3)CC1CC#N; class 1
3. CC(C)n1nc(-c2ccc3oc(N)nc3c2)c2c(N)ncnc21 + CNCc1ccccc1-c1csc(C(C)Nc2nc(C)nc3cc(OC)c(OC)cc23)c1; class 1
4. CC(C)n1nc(-c2ccc3oc(N)nc3c2)c2c(N)ncnc21 + CC1OCC2(CCN(c3cnc(Sc4ccnc(N)c4Cl)c(N)n3)CC2)C1N; class 1
5. COc1cc(Nc2ncc3c(n2)-c2ccc(Cl)cc2C(c2c(F)cccc2OC)=NC3)ccc1C(=O)O + C=CC(=O)N1CCN(c2nc(OCC3CCCN3C)nc3c2CCN(c2cccc4cccc(C)c24)C3)CC1CC#N; class 1

# check: viability, T/C < 20% for CCN1CCN(Cc2ccc(Nc3ncc(F)c(-c4cc(F)c5nc(C)n(C(C)C)c5c4)n3)nc2)CC1 + CC1OCC2(CCN(c3cnc(Sc4ccnc(N)c4Cl)c(N)n3)CC2)C1N
class 0

Find out if reported viability, T/C for CN(C)C/C=C/C(=O)Nc1cc2c(Nc3ccc(F)c(Cl)c3)ncnc2cc1O[C@H]1CCOC1 + C=CC(=O)N1CCN(c2nc(OCC3CCCN3C)nc3c2CCN(c2cccc4cccc(C)c24)C3)CC1CC#N is less than 20%
class 1

Just wondering, is viability, T/C of COc1cc2nccc(Oc3ccc(NC(=O)C4(C(=O)Nc5ccc(F)cc5)CC4)cc3)c2cc1OC + CNCc1ccccc1-c1csc(C(C)Nc2nc(C)nc3cc(OC)c(OC)cc23)c1 below 20%?
class 1

API: query returns whether the compound falls strictly under 20% in viability, T/C. Query: Cn1ncnc1[C@H]1c2n[nH]c(=O)c3cc(F)cc(c23)N[C@@H]1c1ccc(F)cc1 + C=CC(=O)N1CCN(c2nc(=O)n(-c3c(C)ccnc3C(C)C)c3nc(-c4c(O)cccc4F)c(F)cc23)C(C)C1
class 1

Strictly below 20%: is that where viability, T/C of COC(=O)c1ccc2c(C(=Nc3ccc(N(C)C(=O)CN4CCN(C)CC4)cc3)c3ccccc3)c(O)[nH]c2c1 + CC1OCC2(CCN(c3cnc(Sc4ccnc(N)c4Cl)c(N)n3)CC2)C1N sits?
class 0

Please check: viability, T/C for Cn1ncnc1[C@H]1c2n[nH]c(=O)c3cc(F)cc(c23)N[C@@H]1c1ccc(F)cc1 + CC1OCC2(CCN(c3cnc(Sc4ccnc(N)c4Cl)c(N)n3)CC2)C1N , strictly under 20% or not?
class 1

Please indicate whether the reported viability, T/C of COc1cc2nccc(Oc3ccc(NC(=O)C4(C(=O)Nc5ccc(F)cc5)CC4)cc3)c2cc1OC + COc1cc2nc(C)nc(NC(C)c3cc(N)cc(C(F)(F)F)c3)c2cc1OC1CCOC1 is strictly below 20%.
class 0
